Measurement Label: melting point

Below, each entry is followed by its recorded melting point result.
Compound | Measurement
COC(=O)c1sccc1NC(=O)c1cc2c(cc1Cl)COB2O | 267 to 269 °C
NC(=O)c1cc2c(cc1F)COB2O | 216 to 218 °C
COC(CNC(=O)c1cc2c(cc1Cl)COB2O)OC | 150 to 152 °C

For each of the compounds below, note its melting point.
1. COC(COC(=O)c1cc2c(cc1F)COB2O)OC
2. O=C(OCCO)c1cc2c(cc1F)COB2O
3. COC(CNC(=O)c1ccc2c(c1)B(O)OC2)OC
4. C[Si](C)(C)COC(=O)c1cc2c(cc1F)COB2O
5. O=C(OCc1cccc(F)c1)c1ccc2c(c1)B(O)OC2
6. COC(=O)c1cc2c(cc1C)COB2O
7. O=C(NCc1cccc(Cl)c1)c1cc2c(cc1Cl)COB2O
8. C=CCCOC(=O)c1cc2c(cc1F)COB2O

1. 109 to 111 °C
2. 274 to 276 °C
3. 148 to 150 °C
4. 122 to 124 °C
5. 125 to 127 °C
6. 136 to 138 °C
7. 263 to 265 °C
8. 107 to 109 °C

For every item in the list below, what is its measured melting point?
1. COC(COC(=O)c1ccc2c(c1)B(O)OC2)OC
2. O=C(Oc1ccccn1)c1cc2c(cc1F)COB2O
3. CC(=O)COC(=O)c1cc2c(cc1F)COB2O
4. CC(=O)C(C)OC(=O)c1cc2c(cc1F)COB2O (stereo not drawn)
5. Cc1cccc(Cl)c1NC(=O)c1cc2c(cc1F)COB2O

1: 110 to 112 °C; 2: 213 to 215 °C; 3: 122 to 124 °C; 4: 108 to 110 °C; 5: 212 to 214 °C

Look at each compound and report its melting point.
1. COC(CNC(=O)c1cc2c(cc1F)COB2O)OC
2. CC#CCOC(=O)c1ccc2c(c1)B(O)OC2
3. COC(=O)c1sccc1NC(=O)c1cc2c(cc1F)COB2O
4. CC(=O)C(C)OC(=O)c1ccc2c(c1)B(O)OC2 (stereo not drawn)
5. O=C(OCCO)c1cc2c(cc1Cl)COB2O

150 to 152 °C
154 to 155 °C
302 to 304 °C
110 to 112 °C
270 to 272 °C
